- Species on record: Rattus norvegicus
- experiment: Ratio of Ki for adrenergic receptor alpha1 to Ki for 5HT1A receptor in CRL:CD(SD)BR-COBS rat brain
Class key for Ratio Ki values: group 1 = under 20, group 2 = from 20 up to 60, group 3 = 60 and over

1) COc1ccccc1N1CCN(CCCSc2nc3ccccc3s2)CC1 group 3

INPUT: Exam item: assign "COc1ccccc1N1CCN(CCSc2nc3ccccc3[nH]2)CC1" to the correct category.
OUTPUT: group 1

INPUT: Same for "O=[N+]([O-])c1ccccc1N1CCN(CCCSc2nc3ccccc3[nH]2)CC1"
OUTPUT: group 1

INPUT: Same for "O=[N+]([O-])c1ccccc1N1CCN(CCSc2nc3ccccc3[nH]2)CC1"
OUTPUT: group 1

INPUT: Same for "COc1ccccc1N1CCN(CCCSc2nc3ccccc3o2)CC1"
OUTPUT: group 2

INPUT: Same for "COc1ccccc1N1CCN(CCSc2nc3ccccc3o2)CC1"
OUTPUT: group 1

INPUT: Same for "O=[N+]([O-])c1ccccc1N1CCN(CCSc2nc3ccccc3o2)CC1"
OUTPUT: group 1

INPUT: Same for "COc1ccccc1N1CCN(CCCCSc2nc3ccccc3o2)CC1"
OUTPUT: group 3

INPUT: Same for "COc1ccccc1N1CCN(CCSc2nc3ccccc3s2)CC1"
OUTPUT: group 1

INPUT: Same for "O=[N+]([O-])c1ccccc1N1CCN(CCCSc2nc3ccccc3o2)CC1"
OUTPUT: group 1

INPUT: Same for "O=[N+]([O-])c1ccccc1N1CCN(CCCSc2nc3ccccc3s2)CC1"
OUTPUT: group 2

INPUT: Same for "c1cnc(N2CCN(CCCSc3nc4ccccc4o3)CC2)nc1"
OUTPUT: group 3

INPUT: Same for "COc1ccccc1N1CCN(CCCSc2nc3ccccc3n2C)CC1"
OUTPUT: group 3

INPUT: Same for "COc1ccccc1N1CCN(CCCSc2nc3cc(Cl)ccc3o2)CC1"
OUTPUT: group 2

INPUT: Same for "c1ccc(N2CCN(CCCSc3nc4ccccc4s3)CC2)nc1"
OUTPUT: group 3

INPUT: Same for "COc1ccccc1N1CCN(CCCCCCSc2nc3ccccc3o2)CC1"
OUTPUT: group 3

INPUT: Same for "O=C1c2ccccc2S(=O)(=O)N1CCCCN1CCN(c2ncccn2)CC1"
OUTPUT: group 2
